- protocol-details: Pharmacokinetic (PK) studies in beagle dog
- Format: in vivo
- condition-notes: dog, in vivo; male beagle dogs, IV, 0.5 mg/kg, plasma
measurement-kind: AUC(0-t) (ng·h/mL)
Respond numerically; units are ng·h/mL and should not be typed.

Short answer for C[C@@H]1OCC2(CCN(c3ncc(Sc4ccnc(N5CC(C(C)(C)O)C5)c4Cl)nc3CO)CC2)[C@@H]1N [Example 12] : AUC(0-t) was 3090

----------
Listed compounds paired with reported AUC(0-t)
- protocol-details: Pharmacokinetic (PK) studies in beagle dog
- Assay type: in vivo
- condition-notes: dog; male beagle dogs, PO, 2.5 mg/kg, plasma
Respond numerically; units are ng·h/mL and should not be typed.

Reference set (2 entries):
Short answer for Cc1nc(N2CCC3(CC2)CO[C@@H](C)[C@H]3N)c(CO)nc1Sc1ccnc(N)c1Cl [Control Compound 2] : AUC(0-t) was 2550

Short answer for C[C@@H]1OCC2(CCN(c3ncc(Sc4ccnc(N5CC(O)C5)c4Cl)nc3CO)CC2)[C@@H]1N [Control Compound 1] : AUC(0-t) was 3910

***
Short answer for C[C@@H]1OCC2(CCN(c3cnc(Sc4ccnc(N)c4Cl)c(N)n3)CC2)[C@@H]1N [TNO-155, reference compound] : AUC(0-t) was 10100
